Biological target: T1, PD-1-His (S1352, Y-Biologics) (UniProt Q15116 25-170, limits assumed)
T1 construct: not shown: His tag
T1 sequence (Q15116 25-170 limits assumed): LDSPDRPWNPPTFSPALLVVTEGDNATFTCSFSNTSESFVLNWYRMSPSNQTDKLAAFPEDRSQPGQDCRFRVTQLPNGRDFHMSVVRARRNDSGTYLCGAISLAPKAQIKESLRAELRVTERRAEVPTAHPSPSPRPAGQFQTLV
Assay: competition ELISA: PD-L2-Fc coated, PD-1-His as binder, antibody as competitor
Protocol: Human PD-1-Fc (S1420, Y-Biologics) or PD-L2-Fc (#10292-H02H, Sino) was added to wells of a 96-well immuno microplate (#439454, Thermo) and then washed three times with PBS containing 0.05% tween-20 (#P9416, Sigma-Aldrich), followed by allowing to stand in a cleaning solution containing 4% skim milk (#232120, Becton, Dickinson and Company) at room temperature for 1 hour to block non-specific binding. […]
measured.parameter: IC50 (nM)

binder	measured.parameter	test.result
PD1-45D6(A/5B2) (antibody, V domains shown, scFv-phage in the screening ELISA; whole IgG in the other assays; also called 45D6-5B2; PD1 45D6 5B2) VH: QVQLVESGGGVVQPGRSLRLSCAASGFTFSFYAMHWVRQAPGKGLEWVAVISYDGNDKYYADSVKGRFTISRDNSKNTLYLQMNSLRAEDTAVYYCVPTTFEYWGQGTLVTVSS VL: DIVMTQTPLSPPVTPGEPASISCRSSQSLLDSDDGNTYLDWYLQKPGQSPQLLIYTLSHRASGVPDRFSGSGSGTDFTLEISRVEAEDVGVYYCMQRRDFPFTFGQGTKLDIK	IC50	75.4
PD1-49A2 (antibody, V domains shown, scFv-phage in the screening ELISA; whole IgG in the other assays; also called Parent 49A2) VH: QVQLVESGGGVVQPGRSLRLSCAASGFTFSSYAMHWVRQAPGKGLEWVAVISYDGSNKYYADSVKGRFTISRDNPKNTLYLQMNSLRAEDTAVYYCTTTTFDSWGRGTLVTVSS VL: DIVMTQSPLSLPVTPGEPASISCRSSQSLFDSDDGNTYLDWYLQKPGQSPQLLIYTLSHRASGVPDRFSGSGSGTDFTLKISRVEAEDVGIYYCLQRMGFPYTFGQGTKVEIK	IC50	59.7
PD1-62E1 (antibody, V domains shown) VH: QVQLVESGGDLVKPGRSLRLSCTGSGFTFGDHPLTWVRQIPGKGLEWVGFIRSKAYGETTEYAASVKGRFTISRDDSKSIAYLQMNSLRAEDTAVYYCASVSYCSGGSCYQGTFDYWGQGTLVTVSS VL: DIQMTQSPAILSLSPGERATLSCRASQSVTSDVAWYQHIRGQAPRLLIYDASNRASGIPARFSGGGSGTEFTLTISSLEPEDFAVYYCQQYNNWPLTFGGGTKVEIK	IC50	314
PD1-49A2(A/2B9) (antibody, V domains shown, scFv-phage in the screening ELISA; whole IgG in the other assays; also called 49A2-2B9; 49A2 (2B9)) VH: QVQLVESGGGVVQPGRSLRLSCAASGFTFLRYAMHWVRQAPGKGLEWVAVISYDGRYKYYADSVKGRFTISRDNSKNTLYLQMNSLRAEDTAVYYCTTTTFDSWGQGTLVTVSS VL: DIVMTQTPLSLPVTPGEAASISCRSSQSLLDSEDGNTYLDWYLQKPGQSPQLLIYTLSHRASGVPDRFSGSGSGTDFTLEISRVEAEDVGVYYCMQRRDFPFTFGQGTKVDIK	IC50	59

Taken from patent US20190248900A1.
